Molecular target: Mitogen-activated protein kinase 11 (Homo sapiens)
Test: Inhibition of SAPK2b/p38--beta-2 at 10 uM
VALUE_KIND: inhibition (%)

Solved cases below.
| MOLECULAR_STRING | inhibition (%) |
| --- | --- |
| CCONC(=O)c1cn(C)c(=O)c(C)c1Nc1ccc(Br)cc1F | 13 |
| CONC(=O)c1cn(C)c(=O)c(C)c1Nc1ccc(Br)cc1F | 5 |

I. CCONC(=O)c1cn(C)c(=O)c(F)c1Nc1ccc(Br)cc1F
II. Cc1c(Nc2ccc(Br)cc2F)c(C(=O)NOCCO)cn(C)c1=O
Higher inhibition between I and II ? # reply format: chosen label
II
